system: NCI/ADR-RES ovarian; experiment: NCI tumour cell line growth inhibition, 48 h
attributeMeasured: TGI

Solved cases (3 shown):
| compound | subjectOfTest | TGI |
| --- | --- | --- |
| C=C(Cl)C(Br)(CCl)CCC(Br)C(C)(C)Cl (stereo not drawn) | NCI/ADR-RES ovarian | 10.9 µM |
| CN(C)C1(N(C)C)Oc2c(c(=O)n(C)c(=O)n2C)C(c2ccccc2)C1(F)F (stereo not drawn) | NCI/ADR-RES ovarian | > 100 µM |
| CC12CC(c3ccccc3O1)C(C(=O)Nc1ccc(Cl)cc1Cl)C(=O)N2 (stereo not drawn) | NCI/ADR-RES ovarian | > 100 µM |

For the compound CCCN1C(=O)N(CCC)C2C1NC(=S)N2/N=C/C=C/c1ccccc1OC (stereo not drawn) , what TGI is on record?
> 100 µM

Reported TGI for O=C(Oc1ccccn1)c1cc2cc(CCl)ccc2oc1=O : what is it?
75.5 µM

###

tested on: M14 melanoma; test: NCI tumour cell line growth inhibition, 48 h
Parameter TGI: see the listing below.

Worked examples follow.
| compound | reportedValue |
| --- | --- |
| CCC(C)OC(=O)/C(Br)=C1/OC(=O)c2ccccc2-c2ccccc21 (configuration not stated) | > 100 µM |
| Clc1ccc2[nH]cc(-c3nnnn3-c3ccccc3)c2c1 | 41.8 µM |
| C1CN2CCN3CCN4CCN1[P+]243 | > 100 µM |
| O=c1c(/C=C/c2c(O)ccc3ccccc23)nnc2sc(-c3cccc(Br)c3)nn12 | 66.4 µM |
| CC(=O)c1c(C)n([O-])c2cc(Cl)c(Cl)cc2[n+]1=O | > 100 µM |

Given Cn1c(=O)c(-c2ccccc2)c(N=[N+]=[N-])c2ccccc21 , state its recorded TGI.
> 100 µM

Tell me the measured TGI of C[C@@H]1CC[C@@H]2[C@@H]1[C@H](OC(=O)/C=C/c1ccccc1)[C@]1(C3CCCCC3)C[C@@H](OC(=O)CO)[C@@]2(C)O1 , please.
15.2 µM

# query: TGI of entry CC1CCC(C(C)C)C(OC(=O)NCn2cc(-c3ccccc3)nn2)C1 (configuration not stated)
> 100 µM

Fill blank: measured TGI of the compound COC(=O)C1=C(O)C(C(=O)OC)[C@]2(O)[C@H](C(=O)OC)[C@H]1C[C@@H](c1ccc(C(F)(F)F)cc1)[C@H]2C(=O)OC (some centres not stated) is ____.
29.4 µM

###

test system: OVCAR-4 ovarian; assay: NCI tumour cell line growth inhibition, 48 h
attributeMeasured: TGI

The following molecules have reported results that may help.
| testSmiles | TGI |
| --- | --- |
| COc1cc2c3c(n(C)c(=O)c2cc1OC)-c1cc2c(cc1/C3=C\CN)OCO2 | > 27.2 µM |
| NC(=O)C(C(N)=O)=C(O)C(=O)/C=C(\O)c1ccccc1 | > 100 µM |
| COc1ccc(Nc2nnc(-c3cc(O)ccc3O)s2)cc1 | > 50 µM |
| O=C(c1ccccc1Br)C(F)(F)F | > 100 µM |
| Nc1c(C(=O)Nc2ccncc2)sc2nc3c(cc12)CCCCCCCC3 | 1.6 µM |

Turning now to a further molecule:
GET /values?readout=TGI&item= CCCC(=O)Nc1cc2c3c(c1)CCCN3CCC2
> 10 µM
